measurement.target: Cytochrome P450 2C19 (Homo sapiens, UniProt P33261)
Sequence (P33261 whole entry): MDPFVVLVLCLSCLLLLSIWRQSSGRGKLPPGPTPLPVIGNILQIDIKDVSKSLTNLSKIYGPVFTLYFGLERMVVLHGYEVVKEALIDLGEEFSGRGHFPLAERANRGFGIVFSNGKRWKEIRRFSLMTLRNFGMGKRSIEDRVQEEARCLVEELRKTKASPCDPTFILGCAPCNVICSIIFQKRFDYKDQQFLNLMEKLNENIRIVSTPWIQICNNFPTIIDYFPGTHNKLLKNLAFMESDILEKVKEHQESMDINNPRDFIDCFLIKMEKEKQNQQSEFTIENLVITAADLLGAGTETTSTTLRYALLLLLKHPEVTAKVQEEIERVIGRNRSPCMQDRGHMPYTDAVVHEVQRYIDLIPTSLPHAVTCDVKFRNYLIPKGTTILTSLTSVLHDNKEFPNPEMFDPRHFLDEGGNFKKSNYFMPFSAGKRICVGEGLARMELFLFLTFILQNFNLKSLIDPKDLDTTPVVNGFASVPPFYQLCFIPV
pIC50: −log10 of the molar value.
observation.type: pIC50

compound	measurement.target	observation.type	value
O=C1CCC(N2C(=O)c3cccc(NCCCCCn4cc(CN5CCN(CCCn6cc(C7=C(c8c[nH]c9ccccc89)C(=O)NC7=O)c7ccccc76)CC5)nn4)c3C2=O)C(=O)N1 (stereo unspecified)	Cytochrome P450 2C19 (Homo sapiens, UniProt P33261)	pIC50	4.34

###

assay.method.text: Half-life in mouse at 5 mg/kg, iv
Type: ADME, organism-based
measurement.parameters: in vivo
observation.type: half-life (h)

compound	observation.type	quantity.unit	value
O=C1CCC(N2C(=O)c3cccc(NCCCCCn4cc(CN5CCN(CCCn6cc(C7=C(c8c[nH]c9ccccc89)C(=O)NC7=O)c7ccccc76)CC5)nn4)c3C2=O)C(=O)N1 (stereo unspecified)	half-life	h	6

###

Documented Emax across a set of molecules
measurement.target: Protein cereblon/Cyclin-dependent kinase 5 (Homo sapiens, UniProt Q00535+Q96SW2)
Sequence (Q00535 whole entry, looked up, one chain of several): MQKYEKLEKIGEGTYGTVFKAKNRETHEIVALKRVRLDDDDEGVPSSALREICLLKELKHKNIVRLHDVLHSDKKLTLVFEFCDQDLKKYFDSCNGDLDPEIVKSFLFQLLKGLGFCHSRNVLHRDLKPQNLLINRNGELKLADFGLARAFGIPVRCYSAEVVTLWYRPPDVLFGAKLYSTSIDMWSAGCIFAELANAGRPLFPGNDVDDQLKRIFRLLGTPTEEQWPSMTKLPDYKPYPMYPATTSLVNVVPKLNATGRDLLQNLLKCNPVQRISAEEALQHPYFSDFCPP
assay.method.text: PROTAC activity at CRBN/CDK5 in human PANC-1 cells assessed as induction of CDK5 degradation by measuring maximal efficacy by target engagement binding based cell-ELISA relative to control

molecule	Emax, %
O=C1CCC(N2C(=O)c3cccc(NCCOCCOCCOCC(=O)N4CCN(CCCn5cc(C6=C(c7c[nH]c8ccccc78)C(=O)NC6=O)c6ccccc65)CC4)c3C2=O)C(=O)N1 (stereo not drawn)	81
O=C1CCC(N2C(=O)c3cccc(NCCCCCn4cc(CN5CCN(CCCn6cc(C7=C(c8c[nH]c9ccccc89)C(=O)NC7=O)c7ccccc76)CC5)nn4)c3C2=O)C(=O)N1 (stereo not drawn)	88
CN(CCC(=O)N1CCC(NC(=O)c2c[nH]nc2NC(=O)c2c(Cl)cccc2Cl)CC1)C(=O)CNc1cccc2c1C(=O)N(C1CCC(=O)NC1=O)C2=O (stereo not drawn)	90
O=C1CCC(N2C(=O)c3cccc(NCC(=O)N4CCC(C(=O)N5CCN(CCCn6cc(C7=C(c8c[nH]c9ccccc89)C(=O)NC7=O)c7ccccc76)CC5)CC4)c3C2=O)C(=O)N1 (stereo not drawn)	78
O=C1CCC(N2C(=O)c3cccc(NCCOCCOCCOCCOCCOCn4cc(CN5CCN(CCCn6cc(C7=C(c8c[nH]c9ccccc89)C(=O)NC7=O)c7ccccc76)CC5)nn4)c3C2=O)C(=O)N1 (stereo not drawn)	78
O=C1CCC(N2C(=O)c3cccc(NCCOCCOCCOCC(=O)N4CCC(NC(=O)c5c[nH]nc5NC(=O)c5c(Cl)cccc5Cl)CC4)c3C2=O)C(=O)N1 (stereo not drawn)	92
O=C1CCC(N2C(=O)c3ccc(N4CCN(CCOCCC(=O)N5CCC(NC(=O)c6c[nH]nc6NC(=O)c6c(Cl)cccc6Cl)CC5)CC4)cc3C2=O)C(=O)N1 (stereo not drawn)	90
O=C1CCC(N2C(=O)c3ccc(N4CCN(CCOCCC(=O)N5CCN(CCCn6cc(C7=C(c8c[nH]c9ccccc89)C(=O)NC7=O)c7ccccc76)CC5)CC4)cc3C2=O)C(=O)N1 (stereo not drawn)	89

###

assay.method.text: Permeability of compound in PBS at pH 7.4 at 500 uM incubated for 4 hrs by UV spectrophotometry based PAMPA
Format: ADME
measurement.parameters: read-out: permeability

compound	Papp at 4 h, 500 µM (×10⁻⁶ cm/s)
O=C1CCC(N2C(=O)c3ccc(N4CCN(CCOCCC(=O)N5CCN(CCCn6cc(C7=C(c8c[nH]c9ccccc89)C(=O)NC7=O)c7ccccc76)CC5)CC4)cc3C2=O)C(=O)N1 (configuration not stated)	69.2
CN(CCC(=O)N1CCC(NC(=O)c2c[nH]nc2NC(=O)c2c(Cl)cccc2Cl)CC1)C(=O)CNc1cccc2c1C(=O)N(C1CCC(=O)NC1=O)C2=O (configuration not stated)	31.3
O=C1CCC(N2C(=O)c3cccc(NCCCCCn4cc(CN5CCN(CCCn6cc(C7=C(c8c[nH]c9ccccc89)C(=O)NC7=O)c7ccccc76)CC5)nn4)c3C2=O)C(=O)N1 (configuration not stated)	79.9
OC[C@@H](O)[C@@H](O)[C@H](O)[C@H](O)CO	4.08
Cc1cc(=O)n(-c2ccccc2)n1C [ANTIPYRINE]	15.2
O=C1CCC(N2C(=O)c3cccc(NCCOCCOCCOCC(=O)N4CCC(NC(=O)c5c[nH]nc5NC(=O)c5c(Cl)cccc5Cl)CC4)c3C2=O)C(=O)N1 (configuration not stated)	61.2
O=C1CCC(N2C(=O)c3ccc(N4CCN(CCOCCC(=O)N5CCC(NC(=O)c6c[nH]nc6NC(=O)c6c(Cl)cccc6Cl)CC5)CC4)cc3C2=O)C(=O)N1 (configuration not stated)	38.6

###

assay.method.text: Observed clearance in mouse at 5 mg/kg, po
Type: ADME, organism-based
measurement.parameters: in vivo

compound	quantity.unit	CL/F
O=C1CCC(N2C(=O)c3cccc(NCCCCCn4cc(CN5CCN(CCCn6cc(C7=C(c8c[nH]c9ccccc89)C(=O)NC7=O)c7ccccc76)CC5)nn4)c3C2=O)C(=O)N1 (stereo unspecified)	L/h/kg	5.4

###

measurement.target: Protein cereblon/Glycogen synthase kinase-3 beta (Homo sapiens, UniProt P49841+Q96SW2)
Sequence (P49841 whole entry): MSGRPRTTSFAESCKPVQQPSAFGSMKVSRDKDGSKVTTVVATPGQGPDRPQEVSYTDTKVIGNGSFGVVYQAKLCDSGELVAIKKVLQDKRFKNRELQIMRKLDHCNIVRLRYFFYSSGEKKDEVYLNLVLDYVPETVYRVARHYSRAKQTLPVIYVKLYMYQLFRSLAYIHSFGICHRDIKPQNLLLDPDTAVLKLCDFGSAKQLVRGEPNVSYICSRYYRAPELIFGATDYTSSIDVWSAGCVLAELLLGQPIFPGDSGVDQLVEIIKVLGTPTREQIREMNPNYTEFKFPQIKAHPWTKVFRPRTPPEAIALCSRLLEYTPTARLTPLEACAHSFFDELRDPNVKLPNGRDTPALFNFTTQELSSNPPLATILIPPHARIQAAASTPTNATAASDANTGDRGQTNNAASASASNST
Sequence (Q96SW2 whole entry): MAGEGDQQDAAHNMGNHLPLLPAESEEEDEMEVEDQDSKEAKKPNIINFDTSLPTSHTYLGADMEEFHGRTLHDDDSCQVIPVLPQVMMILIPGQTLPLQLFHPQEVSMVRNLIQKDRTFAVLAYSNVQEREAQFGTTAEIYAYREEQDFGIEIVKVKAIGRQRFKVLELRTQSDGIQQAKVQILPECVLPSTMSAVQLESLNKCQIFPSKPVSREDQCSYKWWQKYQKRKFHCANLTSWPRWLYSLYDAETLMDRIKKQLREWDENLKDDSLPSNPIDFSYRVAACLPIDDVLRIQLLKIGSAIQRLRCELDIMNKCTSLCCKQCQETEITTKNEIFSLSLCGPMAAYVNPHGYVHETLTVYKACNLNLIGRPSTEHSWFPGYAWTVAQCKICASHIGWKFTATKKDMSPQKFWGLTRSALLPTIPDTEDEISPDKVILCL
assay.method.text: PROTAC activity at CRBN/GSK3beta in human PANC-1 cells assessed as induction of GSK3beta degradation by target engagement binding based cell-ELISA
Documented DC50 across a set of compounds
observation.type: DC50 (nM)

compound	observation.type	quantity.unit	value
O=C1CCC(N2C(=O)c3ccc(N4CCN(CCOCCC(=O)N5CCC(NC(=O)c6c[nH]nc6NC(=O)c6c(Cl)cccc6Cl)CC5)CC4)cc3C2=O)C(=O)N1 (stereo not drawn)	DC50	nM	98
O=C1CCC(N2C(=O)c3cccc(NCCOCCOCCOCC(=O)N4CCC(NC(=O)c5c[nH]nc5NC(=O)c5c(Cl)cccc5Cl)CC4)c3C2=O)C(=O)N1 (stereo not drawn)	DC50	nM	90
CN(CCC(=O)N1CCC(NC(=O)c2c[nH]nc2NC(=O)c2c(Cl)cccc2Cl)CC1)C(=O)CNc1cccc2c1C(=O)N(C1CCC(=O)NC1=O)C2=O (stereo not drawn)	DC50	nM	152
O=C1CCC(N2C(=O)c3cccc(NCCCCCn4cc(CN5CCN(CCCn6cc(C7=C(c8c[nH]c9ccccc89)C(=O)NC7=O)c7ccccc76)CC5)nn4)c3C2=O)C(=O)N1 (stereo not drawn)	DC50	nM	42
O=C1CCC(N2C(=O)c3cccc(NCCOCCOCCOCCOCCOCn4cc(CN5CCN(CCCn6cc(C7=C(c8c[nH]c9ccccc89)C(=O)NC7=O)c7ccccc76)CC5)nn4)c3C2=O)C(=O)N1 (stereo not drawn)	DC50	nM	220
O=C1CCC(N2C(=O)c3ccc(N4CCN(CCOCCC(=O)N5CCN(CCCn6cc(C7=C(c8c[nH]c9ccccc89)C(=O)NC7=O)c7ccccc76)CC5)CC4)cc3C2=O)C(=O)N1 (stereo not drawn)	DC50	nM	56
O=C1CCC(N2C(=O)c3cccc(NCCOCCOCCOCC(=O)N4CCN(CCCn5cc(C6=C(c7c[nH]c8ccccc78)C(=O)NC6=O)c6ccccc65)CC4)c3C2=O)C(=O)N1 (stereo not drawn)	DC50	nM	96
O=C1CCC(N2C(=O)c3cccc(NCC(=O)N4CCC(C(=O)N5CCN(CCCn6cc(C7=C(c8c[nH]c9ccccc89)C(=O)NC7=O)c7ccccc76)CC5)CC4)c3C2=O)C(=O)N1 (stereo not drawn)	DC50	nM	125

###

Tested on: MIA PaCa-2
assay.method.text: Antiproliferative activity against human MIA PaCa-2 cells assessed as inhibition of cell viability by MTT assay
Type: functional, cell-based
pIC50: −log10 of the molar value.
Documented pIC50 across a set of compounds
observation.type: pIC50

compound	measurement.target	observation.type	value
O=C1CCC(N2C(=O)c3cccc(NCCOCCOCCOCC(=O)N4CCN(CCCn5cc(C6=C(c7c[nH]c8ccccc78)C(=O)NC6=O)c6ccccc65)CC4)c3C2=O)C(=O)N1 (centres undefined)	MIA PaCa-2	pIC50	5.18
O=C1CCC(N2C(=O)c3cccc(NCC(=O)N4CCC(C(=O)N5CCN(CCCn6cc(C7=C(c8c[nH]c9ccccc89)C(=O)NC7=O)c7ccccc76)CC5)CC4)c3C2=O)C(=O)N1 (centres undefined)	MIA PaCa-2	pIC50	5.52
O=C1CCC(N2C(=O)c3ccc(N4CCN(CCOCCC(=O)N5CCN(CCCn6cc(C7=C(c8c[nH]c9ccccc89)C(=O)NC7=O)c7ccccc76)CC5)CC4)cc3C2=O)C(=O)N1 (centres undefined)	MIA PaCa-2	pIC50	5.61
O=C1CCC(N2C(=O)c3cccc(NCCCCCn4cc(CN5CCN(CCCn6cc(C7=C(c8c[nH]c9ccccc89)C(=O)NC7=O)c7ccccc76)CC5)nn4)c3C2=O)C(=O)N1 (centres undefined)	MIA PaCa-2	pIC50	5.67
O=C1CCC(N2C(=O)c3cccc(NCCOCCOCCOCCOCCOCn4cc(CN5CCN(CCCn6cc(C7=C(c8c[nH]c9ccccc89)C(=O)NC7=O)c7ccccc76)CC5)nn4)c3C2=O)C(=O)N1 (centres undefined)	MIA PaCa-2	pIC50	5.33
O=C1Cc2c([nH]c3ccc(Br)cc23)-c2ccccc2N1	MIA PaCa-2	pIC50	5.14
O=C1CCC(N2C(=O)c3ccc(N4CCN(CCOCCC(=O)N5CCC(NC(=O)c6c[nH]nc6NC(=O)c6c(Cl)cccc6Cl)CC5)CC4)cc3C2=O)C(=O)N1 (centres undefined)	MIA PaCa-2	pIC50	5.66
O=C1CCC(N2C(=O)c3cccc(NCCOCCOCCOCC(=O)N4CCC(NC(=O)c5c[nH]nc5NC(=O)c5c(Cl)cccc5Cl)CC4)c3C2=O)C(=O)N1 (centres undefined)	MIA PaCa-2	pIC50	5.42
CN(CCC(=O)N1CCC(NC(=O)c2c[nH]nc2NC(=O)c2c(Cl)cccc2Cl)CC1)C(=O)CNc1cccc2c1C(=O)N(C1CCC(=O)NC1=O)C2=O (centres undefined)	MIA PaCa-2	pIC50	5.51

Where do these numbers come from? They come from ChEMBL document CHEMBL6114965.
